Listed here are molecules together with their documented fold change (FC).
target: Kappa-type opioid receptor (Homo sapiens); experiment: Agonist activity at human kappa-type opioid receptor expressed in CHO-K1 cells assessed as inhibition of forskolin-induced cAMP accumulation after 30 mins by luminescence-based assay relative to columbin; format: functional, cell-based
Sequence (P41145 whole entry): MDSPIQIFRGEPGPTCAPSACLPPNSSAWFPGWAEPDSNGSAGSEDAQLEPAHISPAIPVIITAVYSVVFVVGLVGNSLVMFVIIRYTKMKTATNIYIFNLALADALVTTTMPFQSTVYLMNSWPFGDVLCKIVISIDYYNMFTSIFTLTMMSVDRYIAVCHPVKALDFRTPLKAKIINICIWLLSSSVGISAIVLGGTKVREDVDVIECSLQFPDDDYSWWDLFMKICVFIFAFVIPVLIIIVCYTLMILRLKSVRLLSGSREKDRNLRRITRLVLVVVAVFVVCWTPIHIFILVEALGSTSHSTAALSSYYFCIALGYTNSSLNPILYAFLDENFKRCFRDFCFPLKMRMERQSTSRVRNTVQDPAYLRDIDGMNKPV
measure: fold change (FC)

| smiles-structure | val |
| --- | --- |
| C[C@@]12C[C@H](c3ccoc3)OC(=O)[C@@H]1CC[C@]1(C)[C@H]2[C@H]2CC[C@]1(O)C(=O)O2 | > 25 |
| C[C@@]12C[C@H](c3ccoc3)OC(=O)[C@@H]1CC[C@]1(C)[C@H]2[C@H]2C=C[C@]1(OC(=O)/C=C/c1ccccc1)C(=O)O2 | > 8.3 |
| COCO[C@@]12C=C[C@@H](OC1=O)[C@H]1[C@]3(C)C[C@H](c4ccoc4)OC(=O)[C@@H]3CC[C@]12C | > 4.2 |
| CC(=O)O[C@@]12C=C[C@@H](OC1=O)[C@H]1[C@]3(C)C[C@H](c4ccoc4)OC(=O)[C@@H]3CC[C@]12C | > 6.3 |
| C[C@@]12C[C@H](c3ccoc3)OC(=O)[C@@H]1CC[C@]1(C)[C@H]2[C@@H]2OC(=O)[C@@]1(O)[C@H](O)[C@@H]2O | > 3.1 |

Ref: ChEMBL document CHEMBL4190271
